Attribution: patent US4497742A

- targetOrSystem: beta-Lactamase (Enterobacter cloacae, UniProt P05364)
- Construct: endogenous in cells; host or cells: Enterobacter cloacae TN 1282 (producing strain)
- Sequence (P05364 21-381): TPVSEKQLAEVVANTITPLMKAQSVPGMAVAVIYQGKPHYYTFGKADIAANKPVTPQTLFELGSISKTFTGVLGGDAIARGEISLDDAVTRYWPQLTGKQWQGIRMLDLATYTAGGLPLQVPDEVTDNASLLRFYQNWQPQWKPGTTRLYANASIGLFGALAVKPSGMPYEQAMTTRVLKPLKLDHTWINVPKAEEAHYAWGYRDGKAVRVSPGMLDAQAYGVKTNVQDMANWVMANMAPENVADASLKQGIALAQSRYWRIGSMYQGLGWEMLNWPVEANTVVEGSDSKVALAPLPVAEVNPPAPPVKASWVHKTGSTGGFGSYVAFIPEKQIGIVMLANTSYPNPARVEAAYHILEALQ
- experimentalProtocol: beta-Lactamase-inhibitory activity, producing strain Enterobacter cloacae TN 1282
- Assay type: biochemical
- experimentalSetup: read-out: beta-Lactamase-inhibitory activity [1D50] (converted)
Listed here: items and their measured IC50.
Numbers only here, please. The scale is nM.

[Q] What value of measured IC50 is listed for CC(=O)N/C=C\[S@@+]([O-])C1=C(C(=O)[O-])N2C(=O)[C@@H](C(C)(C)O)[C@H]2C1.[Na+] [Ia] ?
[A] 13.7

====

# maps each entry to its MIC
- System: Staphylococcus aureus FDA 209P
- experimentalProtocol: Antimicrobial spectrum (MIC), Staphylococcus aureus FDA 209P
- Format: cell-based
- experimentalSetup: FDA209P
Where a name gives a salt, the structure may show the parent alone.
The reply should be a number in µg/mL, with the unit left off.

CC(=O)N/C=C\[S@@+]([O-])C1=C(C(=O)O)N2C(=O)[C@@H](C(C)(C)OS(=O)(=O)O)[C@H]2C1 [Ib, disodium salt] = 2.5

[Q] For the record `CC(=O)N/C=C\[S@@+]([O-])C1=C(C(=O)[O-])N2C(=O)[C@@H](C(C)(C)O)[C@H]2C1.[Na+]` , what value of MIC is listed for Staphylococcus aureus FDA 209P?
[A] 0.39

[Q] Ok, now `CC(=O)N/C=C\SC1=C(C(=O)[O-])N2C(=O)[C@@H](C(C)(C)O)[C@H]2C1.[Na+]`
[A] 0.625

[Q] Another molecule to check: CC(=O)N/C=C\SC1=C(C(=O)O)N2C(=O)[C@@H](C(C)(C)OS(=O)(=O)O)[C@H]2C1 [Ih, disodium salt]
[A] 2.5
